# Tested on: XF498
# TEST SUMMARY: NCI tumour cell line growth inhibition, 48 h
Activity calls are given as the source filed them. No stated cut-off is given here; in the data, active = GI50 up to about 1.1 µM and inactive = higher.
For each entry below, report its GI50 value.

Entry under review: `c1ccc2c(c1)c1ccccc1c1n[se]nc21` . Reported GI50?
31.5 µM (inactive)

Entry under review: `C=C/C(C)=C/[C@H](C)C(=O)C[C@H](O)CC1CC(=O)NC(=O)C1` . Reported GI50?
2.86 µM (inactive)

Entry under review: `COC(=O)c1cc(Br)c(Br)n1C` . Reported GI50?
> 100 µM (inactive)

Entry under review: `COc1ccc2c(c1)[n+]([O-])c(/C(C)=N/NC(=O)c1ccccc1O)c(C)[n+]2[O-]` . Reported GI50?
81.5 µM (inactive)

Entry under review: `N#C/C(=C\c1cccc(O)c1O)C(N)=O` . Reported GI50?
31.4 µM (inactive)

Entry under review: `CC1=C(C#N)C(N)=C2C(C)=C(C#N)C(N)=C12` . Reported GI50?
> 100 µM (inactive)

Entry under review: `O=S(=O)(N/N=C/c1cccc(Cl)c1Cl)c1ccccc1` . Reported GI50?
54.7 µM (inactive)

Entry under review: `CC(C)(C)C1=CC(=N/N=c2\scc(-c3ccccc3)n2-c2ccccc2)C=C(C(C)(C)C)C1=O` . Reported GI50?
> 100 µM (inactive)

Entry under review: `C#CC(C)(C)Oc1cc(O)c2c(=O)c3ccccc3n(C)c2c1` . Reported GI50?
> 100 µM (inactive)

Entry under review: `Cc1cc(NS(=O)(=O)c2ccc(Nc3c4ccccc4nc4c(C(=O)Nc5ccc(S(N)(=O)=O)cc5)cccc34)cc2)no1` . Reported GI50?
20.9 µM (inactive)

Entry under review: C=C1C(=O)OC2C/C(C)=C/CC/C(C)=C/CCC3(COC(C)=O)OC3CC12 (stereo unspecified) . Reported GI50?
7.11 µM (inactive)

Entry under review: `CNS(=O)(=O)NN(C)S(=O)(=O)c1ccc(OC)cc1` . Reported GI50?
> 100 µM (inactive)

Entry under review: COC(=O)C1=COC2OC3/C(=C\c4ccc(O)c(OC)c4)C(=O)OC34C=CC1C24 (stereo unspecified) . Reported GI50?
3.46 µM (inactive)

Entry under review: `C/C(CC(=O)Nc1cccc(C)c1C)=N\NC(N)=S` . Reported GI50?
> 100 µM (inactive)

Entry under review: CC1(Sc2ccccc2)CN(Cc2ccccc2)C1=O (stereo unspecified) . Reported GI50?
39.5 µM (inactive)

Entry under review: `Nc1nnc(N)n1NC(=O)C(=O)Nc1ccc([N+](=O)[O-])cc1` . Reported GI50?
> 100 µM (inactive)

* * *

# Tested on: SF-268
# TEST SUMMARY: NCI tumour cell line growth inhibition, 48 h
The source made the active and inactive calls. Rule as the data show it: active = GI50 up to about 1.1 µM and inactive = higher.
METRIC: GI50

Entry under review: `COc1ccccc1NC(=O)NS(=O)(=O)c1ccccc1` . Reported GI50?
> 100 µM (inactive)

Entry under review: COc1ccc(P2(=S)OCCOP(=S)(c3ccc(OC)cc3)S2)cc1 (stereo not given) . Reported GI50?
3.99 µM (inactive)

Entry under review: `N#Cc1cccc2c1Nc1ccccc1S2` . Reported GI50?
32.9 µM (inactive)

Entry under review: O=C(O)CC(Cc1ccccc1)C(=O)O (stereo not given) . Reported GI50?
> 100 µM (inactive)

Entry under review: O=c1ccn(CC2(CO)CC(Cc3ccccc3)C2)c(=O)[nH]1 (stereo not given) . Reported GI50?
> 100 µM (inactive)
